B1: tRNA (parent)
chain: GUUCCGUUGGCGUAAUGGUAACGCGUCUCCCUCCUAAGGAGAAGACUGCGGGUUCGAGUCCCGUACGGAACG

Variants of: B1
PROTOCOL: yeast fitness relative to wild type (ratio to wild type); higher = fitter; tRNA-Arg(CCU), competitive growth, 37 C, YPD
Variants at the floor of the assay were thinned out.
Cut-off 0.6 on yeast fitness, inclusive. At or above means YES; below means NO.

MUTANT | LABEL
G23A G58C A70C | NO
A43U G67C | YES
U19C G50A C55A G63A C66A | NO
C46A A65C | YES
C29G A37G A70G | NO
C11A A21G C62G | YES
G17A C31G C49G | NO
C5U A14C C29U C46A | NO
C5G U16A C33A A43C G50A A57U C60G | NO
G9C C11U C31A A40C A43U A65G C66G | NO
A14G C34G A43C C62U | NO
U8A A15C A21G C27U C46U | NO
G9A A36U G39A | NO
A40C A57G G67A | NO
U35G U64C A65U | NO
A42G C61A G63C | NO
A15G U32G A40C | NO
C33G A42U A45G | NO
G25A U59A | YES

Sourced from the RNAGym collection of RNA variant scans (doi:10.1126/science.aae0568)
